SYSTEM_UNDER_TEST: RSV F on RSV-A2 virus (Respiratory Syncytial Virus (RSV-A2), UniProt P03420 26-574)
TEST_SUMMARY: cell-based or functional assay
ASSAY_METRIC: Neutralization IC50 (RSV subtype A)

>>> measured_result("ADI-41471 (antibody, V domains shown) VH: QVQLVQSGADVKKPGSSVKISCKASGGSFITNSLSWVRRAPGQGLEWMGGIIPVSGTTTYAQKFLGRVTFTADESTSTAYMELNSLRSEDTAVYYCARFLGTPYPNVHYGMDVWGQGTTVTVSS VL: DIRVTQSPSSLSASVGARVTITCRASQSISTYLNWYQEKPGKAPKLLIYAASSLQRGVPSRFSGSGSETTFTLTISSLQPEDFATYYCQQSYTAAYNFGQGTKVEIK")
"> 25 mg/L"
>>> measured_result("ADI-41528 (antibody, V domains shown, also called Ab 800; Antibody Number 800) VH: EVQLVESGGGVVQPGRSLRLSCAASGFTFSSYAMHWVRQAPGKGLEWVAVISFDGSSDYYADSVKGRFTISRDSSKNTLYLRMNSLRAEDTAVYYCARRAVEYSIYNNDAFDVWGQGTTVTVSS VL: SYELTQPPSVSVSPGQTASITCSGDKLGNKFTFWYQQKSGQSPVLVIYQETKRPSGIPERFSGSNSGNTATLTISGTQSMDEADYYCQAWDSSTAFFGGGTKLTVL")
"> 25 mg/L"
>>> measured_result("ADI-41507 (antibody, V domains shown) VH: QVTLKESGPTLVKPTQTLRLTCTFSGFSLNVISGVGVGWIRQPPGKALEWLALIYWDDDKRYSPSLKSRLTIAKDTSKNQVVLTMTNMDPVDTATYYCAHKGGSIEAAVGFDYWGQGTLVTVSS VL: QSVLTQPPSVSGAPGQRVIISCTGSSSNIGAGFAVHWYQQLPGTAPKLLIYANTNRPSGVPDRFSGSKSGTSASLAITGLQAEDEADYYCQSYDTSLSGFYVFGTGTKLTVL")
"> 25 mg/L"
